Organism: Mus musculus
Test: Analgesic activity in mouse assessed as inhibition of acetic acid-induced writhing response relative to aspirin
Format: functional
Binning of fold change (FC) into classes: low end (below -0.5), middle (-0.5 to below 30), high end (30 or more)

MOLECULE: N#Cc1ccc(C(=O)c2ccc3n2CCC3C(=O)O)cc1 (configuration not stated)
CLASS LABEL: middle
--
MOLECULE: COc1ccc(C(=O)c2ccc3n2CCCC3C(=O)O)cc1 (configuration not stated)
CLASS LABEL: middle
--
MOLECULE: COc1ccc(C(=O)c2ccc3n2CCC3C(=O)O)cc1 (configuration not stated) [ANIROLAC]
CLASS LABEL: high end
--
MOLECULE: CC(C)(C)C(=O)c1ccc2n1CCC2C(=O)O (configuration not stated)
CLASS LABEL: low end
--
MOLECULE: O=C(c1ccccc1)c1ccc2n1CCC2C(=O)O (racemic) [KETOROLAC]
CLASS LABEL: high end
--
MOLECULE: O=C(c1cccc(Cl)c1)c1ccc2n1CCCC2C(=O)O (configuration not stated)
CLASS LABEL: low end
--
MOLECULE: O=C(c1ccc(F)cc1)c1ccc2n1CCC2C(=O)O (configuration not stated)
CLASS LABEL: high end
--
MOLECULE: O=C(c1ccccc1)c1ccc2n1CCCCC2C(=O)O (configuration not stated)
CLASS LABEL: low end
--
MOLECULE: O=C(c1ccc(Cl)cc1)c1c(Cl)cc2n1CCC2C(=O)O (configuration not stated)
CLASS LABEL: high end
--
MOLECULE: O=C(c1ccccc1)c1ccc2n1CC(C(=O)O)C2 (configuration not stated)
CLASS LABEL: low end
--
MOLECULE: CSc1ccc(C(=O)c2ccc3n2CCCC3C(=O)O)cc1 (configuration not stated)
CLASS LABEL: middle

---

Organism: Mus musculus
Assay: Analgesic activity in mouse assessed as inhibition of acetic acid-induced writhing response relative to aspirin
Format: functional
Below, each of the compounds is paired with its reported fold change (FC) value.

COMPOUND: O=C(Cc1ccccc1)c1ccc2n1CCC2C(=O)O (stereo unspecified)
OP: =
fold change (FC): 14

COMPOUND: O=C(c1ccccc1)c1ccc2n1CCCC2C(=O)O (stereo unspecified)
OP: =
fold change (FC): 9

COMPOUND: O=C(c1ccc(F)cc1)c1ccc2n1CCCCC2C(=O)O (stereo unspecified)
OP: <
fold change (FC): 1.3

COMPOUND: CS(=O)(=O)c1ccc(C(=O)c2ccc3n2CCCC3C(=O)O)cc1 (stereo unspecified)
OP: <
fold change (FC): 1

COMPOUND: CSc1ccc(C(=O)c2ccc3n2CCCCC3C(=O)O)cc1 (stereo unspecified)
OP: =
fold change (FC): -6

COMPOUND: Cc1ccc(C(=O)c2ccc3n2CCC3C(=O)O)cc1 (stereo unspecified)
OP: =
fold change (FC): 165

---

Below, each of the compounds is paired with its reported pIC50 value.
Target: Prostaglandin G/H synthase 1 (Homo sapiens)
Sequence (P23219 whole entry): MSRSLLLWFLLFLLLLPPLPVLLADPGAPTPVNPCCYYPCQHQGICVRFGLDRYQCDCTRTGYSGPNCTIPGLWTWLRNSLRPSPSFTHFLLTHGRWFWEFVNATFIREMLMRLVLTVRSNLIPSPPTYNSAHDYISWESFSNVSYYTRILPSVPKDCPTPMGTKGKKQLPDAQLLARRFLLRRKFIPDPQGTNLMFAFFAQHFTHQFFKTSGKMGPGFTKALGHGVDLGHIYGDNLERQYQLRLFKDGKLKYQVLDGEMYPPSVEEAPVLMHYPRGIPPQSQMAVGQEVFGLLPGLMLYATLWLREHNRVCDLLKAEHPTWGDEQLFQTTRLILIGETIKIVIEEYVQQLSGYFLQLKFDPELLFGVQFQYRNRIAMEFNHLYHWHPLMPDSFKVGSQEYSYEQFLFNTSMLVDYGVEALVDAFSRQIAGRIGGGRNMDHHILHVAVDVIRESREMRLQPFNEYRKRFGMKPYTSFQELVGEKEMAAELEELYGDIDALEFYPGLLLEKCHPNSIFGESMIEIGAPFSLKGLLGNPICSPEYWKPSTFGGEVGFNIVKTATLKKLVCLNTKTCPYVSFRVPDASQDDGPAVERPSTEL
Test: Inhibition of human COX1
pIC50: −log10 of the molar value.

COMPOUND: O=C(c1ccccc1)c1ccc2n1CC[C@H]2C(=O)O
OP: <
pIC50: 4.00
//
COMPOUND: O=C(c1ccccc1)c1ccc2n1CC[C@@H]2C(=O)O
OP: =
pIC50: 6.34
//
COMPOUND: O=C(c1ccccc1)c1ccc2n1CCC2C(=O)O (racemic) [KETOROLAC]
OP: =
pIC50: 5.91
